# test-target: EGFR kinase (Homo sapiens)
# Sequence (P00533 25-1210): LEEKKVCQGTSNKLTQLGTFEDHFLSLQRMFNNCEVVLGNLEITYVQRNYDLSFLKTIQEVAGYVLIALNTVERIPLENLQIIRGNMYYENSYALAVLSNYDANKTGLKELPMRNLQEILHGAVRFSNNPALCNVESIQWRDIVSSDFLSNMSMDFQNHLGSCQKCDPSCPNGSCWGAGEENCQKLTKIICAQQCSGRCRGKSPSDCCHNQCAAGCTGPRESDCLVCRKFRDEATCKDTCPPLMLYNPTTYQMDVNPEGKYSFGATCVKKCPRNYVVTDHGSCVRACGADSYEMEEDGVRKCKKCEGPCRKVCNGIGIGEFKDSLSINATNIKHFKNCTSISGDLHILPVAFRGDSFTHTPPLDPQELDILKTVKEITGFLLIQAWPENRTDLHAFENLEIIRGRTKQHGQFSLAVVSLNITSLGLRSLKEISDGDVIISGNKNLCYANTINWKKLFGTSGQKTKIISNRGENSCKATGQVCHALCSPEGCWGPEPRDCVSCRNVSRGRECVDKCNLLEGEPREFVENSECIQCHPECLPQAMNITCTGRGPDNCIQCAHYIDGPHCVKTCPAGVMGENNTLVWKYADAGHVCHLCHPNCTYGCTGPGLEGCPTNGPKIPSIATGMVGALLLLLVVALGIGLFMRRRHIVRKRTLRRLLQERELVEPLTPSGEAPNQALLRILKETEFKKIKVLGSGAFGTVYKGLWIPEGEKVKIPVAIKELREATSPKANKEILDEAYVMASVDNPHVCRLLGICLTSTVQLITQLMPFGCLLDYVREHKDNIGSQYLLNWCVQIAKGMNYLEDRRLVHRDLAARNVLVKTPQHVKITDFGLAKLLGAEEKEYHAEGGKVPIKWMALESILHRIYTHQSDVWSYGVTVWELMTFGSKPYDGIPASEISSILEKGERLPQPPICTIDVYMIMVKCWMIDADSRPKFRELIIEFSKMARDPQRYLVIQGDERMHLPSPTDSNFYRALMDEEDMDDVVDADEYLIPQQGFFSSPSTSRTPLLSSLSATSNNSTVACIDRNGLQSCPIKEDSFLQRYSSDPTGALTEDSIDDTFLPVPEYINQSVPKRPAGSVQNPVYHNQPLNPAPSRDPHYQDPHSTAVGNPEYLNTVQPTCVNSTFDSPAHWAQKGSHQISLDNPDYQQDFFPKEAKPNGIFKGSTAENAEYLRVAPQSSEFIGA
# protocol-summary: Enzymatic experiment on EGFR (HTRF kinEASE-TK)
# Assay type: biochemical
# experimental-conditions: ATP 1.65 μM; read-out: Kinase IC50 (nM) in vitro EGFR
measured-property: IC50 (nM)

> print(dat)
                                   compound  unit.abbrev  number
1  Cc1cc(Nc2ncnc3ccc(-c4cccc(NC(=O)/C=C/c5cccnc5)c4)cc23)ccc1Oc1cc2nncn2cn1           nM    47.1
2  Cc1cc(Nc2ncnc3ccc(-c4ccc(CN5CCN(C)CC5)o4)cc23)ccc1Oc1cc2nncn2cn1           nM    44.7
3  Cc1cc(Nc2ncnc3ccc(NC(=O)OC[C@@H]4COCCN4)cc23)ccc1Oc1cc2nncn2cn1           nM    40.6
4  Cc1cc(Nc2ncnc3ccc(NC(=O)c4cnoc4C)cc23)ccc1Oc1cc2nncn2cn1           nM      20
5  Cc1cc(Nc2ncnc3ccc(NC4=NCC(C)O4)cc23)ccc1Oc1cc2nncn2cn1 (stereo not shown)           nM     127

[a] Cc1cc(NC(=O)Nc2ccc3ncnc(Nc4ccc(Oc5cc6nncn6cn5)c(C)c4)c3c2)no1
[b] Cc1cc(Nc2ncnc3ccc(-c4ccc(CO)o4)cc23)ccc1Oc1cc2nncn2cn1
Query :: Please state the entry with greater IC50 among a and b . Lab log: write the label of the selected item as the result.
Result :: a
(a: 157 nM, b: 15.6 nM)

These entries and their values trace back to patent US10828305B2.
